Hello, the source for this data is the supplement of paper PMC10567573, in case you need it.

protein stability index values by entry
B1: STX5 (parent)
chain: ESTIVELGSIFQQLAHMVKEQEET

variants of: B1; test: protein stability index of a GFP-peptide fusion (GPS, HEK-293T) (PSI 1-6); higher = more stable; settings: c terminus: a fixed tail appended;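 also: lentivirally expressed fusions sorted by FACS into six bins by GFP to DsRed ratio, PSI derived from sequencing read proportions per bin multiplied by bin number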
property: protein stability index

INSERT INTO assay_data (variant_descriptor, value_observed) VALUES
  ('I4Y', 1.91),
  ('F11V', 3.19),
  ('E22M', 2.89),
  ('V18P', 4.45),
  ('V18N', 4.38),
  ('S2I', 1.86),
  ('I10K', 3.69),
  ('E1Q', 1.68),
  ('I4H', 3.14),
  ('E23Q', 2.5),
  ('Q13P', 4.54),
  ('Q21F', 1.98),
  ('M17E', 3.41),
  ('I10W', 2.58),
  ('A15F', 2.09),
  ('K19F', 2.31),
  ('E1G', 2.69),
  ('E22T', 1.39),
  ('E23H', 2.11),
  ('F11A', 3.83),
  ('G8A', 2.47),
  ('E23G', 1.28),
  ('V5K', 3.1),
  ('Q12P', 4.39),
  ('E1M', 2.45),
  ('K19C', 1.41),
  ('G8L', 1.85),
  ('A15S', 2.99),
  ('E1H', 1.27),
  ('L14N', 5.24),
  ('T24D', 1.89),
  ('E23D', 2.19),
  ('A15K', 3.1),
  ('Q12A', 1.98),
  ('T3F', 1.3),
  ('T24H', 2.42),
  ('L14G', 4.64),
  ('F11N', 5.61),
  ('V5F', 1.83),
  ('S9Y', 1.46),
  ('T24A', 2.17),
  ('A15W', 2.18),
  ('T24V', 2.01),
  ('L14M', 3.77),
  ('V5R', 2.88),
  ('E22H', 1.3);
